target: HLA-A*26:01; assay: IEDB peptide-MHC binding, purified MHC/direct/fluorescence; filed as Kd, often an IC50 or EC50 that approximates it; bounds were set here for any values at or beyond the usual limits of such assays; settings: source organism: Giardia lamblia ATCC 50803
measured_metric: Kd

* DYIYLPLLK | ≥ 20 µM
* MHDPHSIPL | ≥ 20 µM

====

target: HLA-A*02:12; assay: IEDB peptide-MHC binding, purified MHC/direct/fluorescence; filed as Kd, often an IC50 or EC50 that approximates it; bounds were set here for any values at or beyond the usual limits of such assays; conditions: source organism: Giardia lamblia ATCC 50803
measured_metric: Kd

- MHDPHSIPL: ≥ 20 µM

====

target: HLA-B*08:02; assay: IEDB peptide-MHC binding, purified MHC/direct/fluorescence; filed as Kd, often an IC50 or EC50 that approximates it; bounds were set here for any values at or beyond the usual limits of such assays; conditions: source organism: Orthomarburgvirus marburgense
pKd: −log10 of the molar value.
measured_metric: pKd

• SEINNLNLT = ≤ 4.70

====

target: HLA-B*83:01; assay: IEDB peptide-MHC binding, purified MHC/competitive/fluorescence; filed as Kd, often an IC50 or EC50 that approximates it; bounds were set here for any values at or beyond the usual limits of such assays; conditions: source organism: Encephalitozoon cuniculi GB-M1
measured_metric: Kd

• FSFFMNENF = ≥ 5 µM

====

biological target: HLA-B*44:03; assay: IEDB peptide-MHC binding, purified MHC/competitive/radioactivity; filed as Kd, often an IC50 or EC50 that approximates it; bounds were set here for any values at or beyond the usual limits of such assays; details: source organism: Mammarenavirus lassaense
measured_metric: Kd (nM)

- KENLYIKSI: 118

====

target: HLA-A*03:01; assay: IEDB peptide-MHC binding, purified MHC/direct/fluorescence; filed as Kd, often an IC50 or EC50 that approximates it; bounds were set here for any values at or beyond the usual limits of such assays; settings: source organism: Homo sapiens
pKd: −log10 of the molar value.
In this section, each of the sequences is paired with its reported pKd.
measured_metric: pKd

- STDHIPILY: 5.50
- ILGPPGSVY: 6.07

====

target: HLA-B*45:01; assay: IEDB peptide-MHC binding, purified MHC/competitive/radioactivity; filed as Kd, often an IC50 or EC50 that approximates it; bounds were set here for any values at or beyond the usual limits of such assays; settings: source organism: Lassa virus Josiah
measured_metric: Kd (nM)

• AEAQMSIQLI = 78.9

====

biological target: HLA-B*46:01; experiment: IEDB peptide-MHC binding, purified MHC/direct/fluorescence; filed as Kd, often an IC50 or EC50 that approximates it; bounds were set here for any values at or beyond the usual limits of such assays; conditions: source organism: Lassa virus Josiah
measured_metric: Kd

* GLVECNNHY | ≥ 20 µM

====

Collected Kd values appear next to each entry.
target: HLA-A*30:01; experiment: IEDB peptide-MHC binding, purified MHC/competitive/radioactivity; filed as Kd, often an IC50 or EC50 that approximates it; bounds were set here for any values at or beyond the usual limits of such assays; conditions: source organism: Vaccinia virus WR
measured_metric: Kd (nM)

- KWKYENPCK: 15
- KTKETNRIY: 10.7
- RTKIPLSKV: 4.13
- FQTVNFNNA: 115
- KNKIPFLLL: 92.4
- AARDRQFEK: 104
- KYSRSKPAA: 5.71
